assay: Drug level in Swiss SPF (CD1) mouse plasma at 20 mg/kg, po after 0.5 hrs; assay type: ADME, organism-based; parameters: dose 20 mg/kg, route oral
measured_endpoint: concentration at 0.5 h (ng/mL)
Respond numerically; units are ng/mL and should not be typed.

Ask: Find the measured concentration at 0.5 h of O=C(NCCCN1CCCC1=O)c1cnccc1Nc1nc(-c2cc(Br)ccc2F)nc2nccnc12 and report it.
Reply: 220

====

biological target: Mitogen-activated protein kinase 8 (Homo sapiens); test: Inhibition of JNK1
Sequence (P45983 whole entry): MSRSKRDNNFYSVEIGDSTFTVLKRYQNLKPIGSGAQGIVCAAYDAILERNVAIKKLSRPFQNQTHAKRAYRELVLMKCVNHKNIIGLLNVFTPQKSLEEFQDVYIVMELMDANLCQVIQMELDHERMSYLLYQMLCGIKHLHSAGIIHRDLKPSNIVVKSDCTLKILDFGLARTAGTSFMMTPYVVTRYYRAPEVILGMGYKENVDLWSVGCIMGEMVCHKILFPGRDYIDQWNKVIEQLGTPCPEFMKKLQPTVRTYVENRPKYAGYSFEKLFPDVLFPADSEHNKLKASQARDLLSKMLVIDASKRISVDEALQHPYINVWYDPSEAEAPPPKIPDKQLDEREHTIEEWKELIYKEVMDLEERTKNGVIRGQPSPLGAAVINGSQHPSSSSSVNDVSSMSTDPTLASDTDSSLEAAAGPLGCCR
measured_endpoint: IC50 (µM)
Respond numerically; units are µM and should not be typed.

Ask: Find the measured IC50 of O=C(NCCCN1CCCC1=O)c1cnccc1Nc1nc(-c2cc(Br)ccc2F)nc2nccnc12 and report it.
Reply: 10.5

====

CC50 overview
assay: Cytotoxicity against MT4 cells by luciferase assay; assay type: cell-based; conditions: human

Fc1ccc(Br)cc1-c1nc(N(Cc2ccccc2)c2ccncc2)c2nccnc2n1 : > 32 µM
Fc1ccc(Br)cc1-c1nc(Nc2ccncc2)c2nccnc2n1 : > 32 µM
CCc1cnccc1Nc1nc(-c2cc(Cl)ccc2F)nc2nccnc12 : > 32 µM

Ask: Find the measured CC50 of Fc1ccc(Br)cc1-c1nc(Nc2ccccc2)c2nccnc2n1 and report it.
Reply: > 32 µM

Ask: Find the measured CC50 of CN(c1ccncc1)c1nc(-c2cc(Br)ccc2F)nc2nccnc12 and report it.
Reply: > 32 µM

Ask: Find the measured CC50 of Cc1cnccc1Nc1nc(-c2cc(Br)ccc2F)nc2nccnc12 and report it.
Reply: > 32 µM

====

experiment: Cytotoxicity against Huh7 cells by luciferase assay; format: cell-based, Huh-7; settings: human
measured_endpoint: CC50

Reference set, count: 5
CN(c1ccccc1)c1nc(-c2cc(Br)ccc2F)nc2nccnc12 : > 32 µM
CCc1cnccc1Nc1nc(-c2cc(Cl)ccc2F)nc2nccnc12 : > 32 µM
COc1cnc(-c2cc(Cl)ccc2F)nc1Nc1ccncc1C(=O)NCCCN1CCOCC1 : 17.1 µM
COc1cnc(-c2cc(Cl)ccc2F)nc1Nc1ccncc1C(=O)NCCN : 5.5 µM
COc1cnc(-c2cc(Cl)ccc2F)nc1Nc1ccncc1C(=O)NCCNCCO : > 32 µM

Ask: Find the measured CC50 of Fc1ccc(Br)cc1-c1nc(N(Cc2ccccc2)c2ccncc2)c2nccnc2n1 and report it.
Reply: > 32 µM

Ask: Find the measured CC50 of COc1cnc(-c2cc(Cl)ccc2F)nc1Nc1ccncc1C(=O)NCCCn1ccnc1 and report it.
Reply: 15.3 µM

Ask: Find the measured CC50 of COc1cnc(-c2cc(Cl)ccc2F)nc1Nc1ccncc1C(=O)NCCCN1CCCCC1C (configuration not stated) and report it.
Reply: 3.6 µM

Ask: Find the measured CC50 of COc1cnc(-c2cc(Cl)ccc2F)nc1Nc1ccncc1C(=O)NCC(F)(F)F and report it.
Reply: > 32 µM

Ask: Find the measured CC50 of Fc1ccc(Cl)cc1-c1nc(Nc2ccncc2)c2nccnc2n1 and report it.
Reply: > 25 µM

Ask: Find the measured CC50 of CCOC(=O)CNC(=O)c1cnccc1Nc1nc(-c2cc(Cl)ccc2F)ncc1OC and report it.
Reply: > 32 µM

Ask: Find the measured CC50 of Fc1ccc(Br)cc1-c1nc(N(CCc2ccccc2)c2ccncc2)c2nccnc2n1 and report it.
Reply: 22.2 µM

Ask: Find the measured CC50 of O=C(NCCCN1CCCC1=O)c1cnccc1Nc1nc(-c2cc(Br)ccc2F)nc2nccnc12 and report it.
Reply: > 32 µM

Ask: Find the measured CC50 of CN(c1ccncc1)c1nc(-c2cc(Br)ccc2F)nc2nccnc12 and report it.
Reply: > 32 µM

Ask: Find the measured CC50 of Cc1ccccc1Nc1nc(-c2cc(Br)ccc2F)nc2nccnc12 and report it.
Reply: > 32 µM

Ask: Find the measured CC50 of CCCCN(c1ccncc1)c1nc(-c2cc(Br)ccc2F)nc2nccnc12 and report it.
Reply: > 32 µM

Ask: Find the measured CC50 of Cc1cc(Nc2nc(-c3cc(Br)ccc3F)nc3nccnc23)ccn1 and report it.
Reply: 12.9 µM

Ask: Find the measured CC50 of Oc1nc(-c2cc(Cl)ccc2F)nc2nccnc12 and report it.
Reply: > 25 µM

Ask: Find the measured CC50 of COc1cnc(-c2cc(Cl)ccc2F)nc1Nc1ccncc1C(=O)NC[C@H]1CCCO1 and report it.
Reply: > 32 µM

Ask: Find the measured CC50 of Cc1cnccc1Nc1nc(-c2cc(Br)ccc2F)nc2nccnc12 and report it.
Reply: > 32 µM

Ask: Find the measured CC50 of COc1cnc(-c2cc(Cl)ccc2F)nc1Nc1ccncc1C(=O)NCCCN1CCCC1=O and report it.
Reply: 17.7 µM

Ask: Find the measured CC50 of FC(F)(F)c1cccc(-c2nc(Nc3ccncc3)c3nccnc3n2)c1 and report it.
Reply: > 25 µM
